As shown below, each of these binders has a reported A450 value.
Target: T1, Mouse Id2: Histidine (mouse, UniProt P41136 1-134, limits assumed)
T1 construct: Fusion protein made in E. coli from vector pGW07; also called m-Id2: His; not shown: His tag
T1 sequence (looked up): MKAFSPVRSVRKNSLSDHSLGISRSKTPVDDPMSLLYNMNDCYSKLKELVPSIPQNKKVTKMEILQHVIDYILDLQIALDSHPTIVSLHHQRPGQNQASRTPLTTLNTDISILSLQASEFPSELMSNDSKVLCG
Experiment: ELISA, Ab 0.250 µg/ml
Number in A450, nothing else.

Binder	Result
rabbit monoclonal anti-mouse/human Id3, clone #BCH-4/#16-1 (antibody, V domains shown, Rabbit IgG from a rabbit hybridoma; also called m/h Id3 MoAb 16-1) VH: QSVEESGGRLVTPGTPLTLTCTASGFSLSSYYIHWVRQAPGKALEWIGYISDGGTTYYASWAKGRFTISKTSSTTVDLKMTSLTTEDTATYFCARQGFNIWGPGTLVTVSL VL: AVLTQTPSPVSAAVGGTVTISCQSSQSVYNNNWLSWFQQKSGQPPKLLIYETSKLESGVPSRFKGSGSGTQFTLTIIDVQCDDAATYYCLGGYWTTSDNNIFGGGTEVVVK	0.063

Task: Any idea what A450 was measured for rabbit monoclonal anti-mouse/human Id3, clone #BCH-4/#42-1 (antibody, V domains shown, Rabbit IgG from a rabbit hybridoma; also called m/h Id3 MoAb 42-1) VH: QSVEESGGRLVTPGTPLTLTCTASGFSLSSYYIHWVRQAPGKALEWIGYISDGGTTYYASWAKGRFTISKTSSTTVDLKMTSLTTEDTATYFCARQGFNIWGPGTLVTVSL VL: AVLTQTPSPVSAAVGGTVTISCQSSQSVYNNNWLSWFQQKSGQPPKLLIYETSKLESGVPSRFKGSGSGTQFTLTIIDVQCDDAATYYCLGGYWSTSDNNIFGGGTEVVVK ?
Result: 0.063

Task: Any idea what A450 was measured for rabbit monoclonal anti-mouse/human Id3, clone #BCH-4/#17-3 (antibody, V domains shown, Rabbit IgG from a rabbit hybridoma; also called m/h Id3 MoAb 17-3; BCH-3/#17-3) VH: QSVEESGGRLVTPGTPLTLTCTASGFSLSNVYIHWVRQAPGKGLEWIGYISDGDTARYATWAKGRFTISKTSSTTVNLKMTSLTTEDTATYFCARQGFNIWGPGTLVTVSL VL: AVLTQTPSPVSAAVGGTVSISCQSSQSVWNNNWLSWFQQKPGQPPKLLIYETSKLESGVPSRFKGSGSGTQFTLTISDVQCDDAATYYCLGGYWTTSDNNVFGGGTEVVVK ?
Result: 0.064

Task: Any idea what A450 was measured for rabbit monoclonal anti-mouse/human Id3, clone #BCH-4/#6-1 (antibody, V domains shown, Rabbit IgG from a rabbit hybridoma; also called m/h Id3 MoAb 6-1) VH: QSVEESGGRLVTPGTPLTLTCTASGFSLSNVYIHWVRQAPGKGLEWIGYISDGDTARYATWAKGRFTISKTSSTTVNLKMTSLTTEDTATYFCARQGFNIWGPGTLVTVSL VL: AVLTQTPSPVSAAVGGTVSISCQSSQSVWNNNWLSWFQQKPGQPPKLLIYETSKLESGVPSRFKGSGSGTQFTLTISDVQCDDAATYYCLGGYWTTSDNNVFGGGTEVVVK ?
Result: 0.062
